# Measured on: T1, human CD38 expressed on the cell surface (human, UniProt P28907 1-300)
# T1 construct: whole, on cells; also called hCD38-expressing cells; huCD38
# Assay method text: flow cytometry (column FACS EC50 nM, hu)
Test readout: EC50 (nM)
Respond numerically; units are nM and should not be typed.

>>> result("mAb4 (antibody, human IgG1, kappa, V domains shown, also called antiCD38_C2-CD38-1_VH5-VL3) VH: QVQLVQSGAEVVKSGASVKVSCKASGYTFTSFNMHWVKEAPGQGLEWIGYIYPGNGGTNYNQKFQGRATLTADTSASTAYMEISSLRSEDTAVYFCARTGGLRRAYFTYWGQGTLVTVSS VL: DIVLTQSPATLSLSPGERATISCRASESVDSYGNGFMHWYQQKPGQPPRLLIYLASSRATGIPARFSGSGSGTDFTLTISPLEPEDFAVYYCQQNKEDPWTFGGGTKLEIKR")
0.55

Request: Which EC50 value is on record for mAb5 (antibody, human IgG1, kappa, V domains shown, also called antiCD38_C2-CD38-1_VH6-VL3) VH: QVQLVQSGAEVVKPGASVKMSCKASGYTFTSFNMHWVKEAPGQRLEWIGYIYPGNGGTNYNQKFQGRATLTADTSASTAYMEISSLRSEDTAVYFCARTGGLRRAYFTYWGQGTLVTVSS VL: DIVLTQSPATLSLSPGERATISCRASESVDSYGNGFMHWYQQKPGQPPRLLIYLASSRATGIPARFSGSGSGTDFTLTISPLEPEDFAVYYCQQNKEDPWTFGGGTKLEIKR ?
Result: 0.68

Request: Which EC50 value is on record for mAb2 (antibody, human IgG1, kappa, V domains shown, also called antiCD38_C2-CD38-1_VH1-VL1; CD38VH1) VH: QVQLVQSGAEVVKPGASVKVSCKASGYTFTSYAMHWVKEAPGQRLEWIGYIYPGQGGTNYNQKFQGRATLTADTSASTAYMELSSLRSEDTAVYFCARTGGLRRAYFTYWGQGTLVTVSS VL: DIVLTQSPATLSLSPGERATISCRASQSVSSYGQGFMHWYQQKPGQPPRLLIYGASSRATGIPARFSGSGSGTDFTLTISPLEPEDFAVYYCQQNKEDPWTFGGGTKLEIKR ?
Result: 0.33

Source of measurements: patent US20220041746A1
